Test system: human acute monocytic leukemia cell strain THP-1
Experiment: LPS-stimulated TNFα production inhibition test using THP-1 cells
Type: cell-based
Conditions: Homo sapiens, THP-1, 4 h, LPS 2.5 ng/mL, TNFα by HTRF
Method: By the THP-1 assay, influence of a test compound on the TNFα production induced by LPS stimulation can be evaluated. […] The fluorescence intensity ratio for the wavelengths of 620 and 665 nm (620 nm/665 nm) was measured with a microplate reader, and the amount of TNFα in the supernatant was calculated by using a calibration curve. […]
This listing pairs molecules with measured IC50.
Give your result as the value with the unit written after it.

Examples with answers:
Cc1ncc(-c2ccc3ncc4cc3c2OCC2(CC2)COC(=O)[C@@H]2C[C@H](CCN2C)N4)cn1    0.102 µM
Cc1ncc(-c2ccc3ncc4cc3c2/C=C/CCNC(=O)[C@@H]2CC(CC(C)N2C)N4)cn1 (stereo in doubt)    0.066 µM
CN1CC[C@H]2C[C@H]1C(=O)NCC(F)(F)COc1c(-c3cncnc3)ccc3ncc(nc13)N2    0.063 µM

Could you share what IC50 was measured for CCCOCc1ncc(-c2ccc3ncc4nc3c2OCCCCCNC(=O)[C@@H]2C[C@H](CCN2C)N4)cn1 , tested on human acute monocytic leukemia cell strain THP-1?
0.145 µM

Could you share what IC50 was measured for CCCOCc1ncc(-c2ccc3ncc4cc3c2OCCCOC(=O)[C@@H]2C[C@H](CCN2C)N4)cn1 , tested on human acute monocytic leukemia cell strain THP-1?
0.043 µM

Could you share what IC50 was measured for Cc1ncc(-c2ccc3ncc4cc3c2OCC(F)CNC(=O)[C@@H]2C[C@H](CCN2C(C)C)N4)cn1 (stereo partly drawn) , tested on human acute monocytic leukemia cell strain THP-1?
0.048 µM
